Attribution: PubChem BioAssay (NCATS)

- assay remarks: qHTS for differential inhibitors of proliferation of Plasmodium falciparum line Dd2 (AID 1882); further: nearly all actives have a fitted effect of over 65% in size
- particulars: Plasmodium falciparum Dd2 proliferation inhibition; series mostly up to 28.7 µM
Records with an inconclusive call do not appear. Activity calls are given as the source filed them. The call rests on the fitted dose curve; in most records, active means well fitted inhibition curve with a large enough effect; inconclusive means small, poorly fitted or top-dose-only effect; inactive means flat fitted curve, though single readings scatter.
Please answer using one outcome listed in true = active, false = inactive

State the result this test recorded for CC(CN1c2ccccc2Sc2ccccc21)N(C)C (stereo not given) . true

Similarly, CCN(CC)CCNC(=O)c1cc(Cl)c(N)cc1OC ? false

Similarly, NC(N)=NCCC[C@H](N)C(=O)O ? false

Similarly, CC1=C(CC(=O)O)c2cc(F)ccc2/C1=C\c1ccc(S(C)=O)cc1 (stereo not given) ? false

Similarly, CCN(CC)CCOC(=O)C1(C2CCCCC2)CCCCC1 ? true

Similarly, CC(C)(C)c1onc(OCP(=O)(O)O)c1CC(N)C(=O)O (stereo not given) ? false

Similarly, NC(=O)c1ncn([C@@H]2O[C@H](CO)[C@@H](O)[C@H]2O)n1 ? false

Similarly, C[C@H]1O[C@@H](n2cc(F)c(=O)[nH]c2=O)[C@H](O)[C@@H]1O ? false

Similarly, C[C@](N)(Cc1ccc(O)cc1)C(=O)O ? false

Similarly, COc1ccc(Cl)cc1C(=O)NCCc1ccc(S(=O)(=O)NC(=O)NC2CCCCC2)cc1 ? false

Similarly, O=C1N=C(O)CN1/N=C/c1ccc(-c2ccc([N+](=O)[O-])cc2)o1 ? false

Similarly, CC(=O)OCC(=O)[C@@]1(O)CC[C@H]2[C@@H]3CCC4=CC(=O)CC[C@]4(C)[C@H]3C(=O)C[C@@]21C ? false

Similarly, C#CCN(C)Cc1ccccc1 ? false

Similarly, CC(C)(C(=O)O)c1ccc(C(O)CCCN2CCC(C(O)(c3ccccc3)c3ccccc3)CC2)cc1 (stereo not given) ? false

Similarly, Nc1cc(=O)[nH]c(N)n1 ? false

Similarly, CN(C)CCOC(C)(c1ccccc1)c1ccccn1 (stereo not given) ? true

Similarly, CN(C)CCCN1c2ccccc2Sc2ccc(Cl)cc21 ? true

Similarly, CC(C(O)c1ccc(O)cc1)N1CCC(Cc2ccccc2)CC1 (stereo not given) ? true

Similarly, Cc1cc(N)c2ccccc2[n+]1CCCCCCCCCC[n+]1c(C)cc(N)c2ccccc21 ? true

Similarly, CC(C)NC[C@H](O)c1ccc(O)c(O)c1 ? false

###

- Tested on: HaCat
- assay remarks: Cytotoxic Profiling of Annotated Libraries Using Quantitative High-Throughput Screening (AID 1296008); further: nearly all actives have a fitted effect of over 60% in size
- particulars: Five cell lines viability, CellTiter-Glo ATP luminescence, 48-72 h
Inconclusive results are not listed. The source made the active and inactive calls. Calls come from the whole dose curve; as a rule, active = well fitted inhibition curve with a large enough effect; inconclusive = small, poorly fitted or top-dose-only effect; inactive = flat fitted curve, though single readings scatter.
quantity measured: outcome

Before answering, review these 4 worked examples.
CCN(CC)C(=O)Nc1ccc(OCC(O)CNC(C)(C)C)c(C(C)=O)c1 (stereo not given)
inactive
COc1cc(C)c(Cc2cnc(N)nc2N)cc1OC
inactive
CC(C)(C)NCC(O)COc1ccc(NC(=O)NC2CCCCC2)cc1 (stereo not given)
inactive
C[C@@H]1CN(c2c(F)c(F)c3c(=O)c(C(=O)O)cn(C4CC4)c3c2F)C[C@H](C)N1
inactive

Read the next record carefully.
// query outcome value for entry C=Cc1c(C)c2cc3[nH]c(cc4nc(cc5nc(cc1[nH]2)C(C)=C5CCC(=O)O)C(CCC(=O)O)=C4C)c(C)c3C=C inactive

###

- assay remarks: Confirmatory qHTS for small molecule stabilizers of the endoplasmic reticulum resident proteome: Secreted ER Calcium Modulated Protein (SERCaMP) assay (AID 1508628); further: nearly all actives have a fitted effect of over 40% in size; further: potency means the concentration at half of the fitted maximal effect
- particulars: SERCaMP secreted luciferase ER calcium/proteostasis reporter; series mostly up to 76.3 µM
- From the text: Assay Provider: Brandon K. Harvey Ph.D. National Institute on Drug Abuse, National Institutes of Health, Baltimore, MD Endoplasmic reticulum (ER) dysregulation is associated with human pathologies including neurodegenerative, cardiovascular, muscular, and diabetic conditions. […] To identify such compounds, we performed a quantitative high-throughput screen (qHTS) using the SERCaMP assay, which monitors secretion of ER resident proteins triggered by calcium depletion. […]
Inconclusive results are not listed. The source made the active and inactive calls. Calls follow the shape of the dose curve; as a rule, active = well fitted inhibition curve with a large enough effect; inconclusive = small, poorly fitted or top-dose-only effect; inactive = no such curve, though single readings can be large or run the other way.
quantity measured: Potency

Cc1cc2nc3c(=O)[nH]c(=O)nc-3n(C[C@H](O)[C@H](O)[C@H](O)CO)c2cc1C
inactive
CNCCC(Oc1ccc(C(F)(F)F)cc1)c1ccccc1 (stereo not drawn)
inactive
CN1CCCCC1CCN1c2ccccc2Sc2ccc(S(C)=O)cc21 (stereo not drawn)
12.6 µM (active)
O=c1cc(CO)occ1O
inactive
CN(C)CCC=C1c2ccccc2CCc2ccccc21
inactive

// query Potency value for entry CC(C)(C)[C@]1(O)CCN2C[C@H]3c4ccccc4CCc4cccc(c43)[C@@H]2C1 12.6 µM (active)

Similarly, Cc1c(O)cccc1C(=O)N[C@@H](CSc1ccccc1)[C@H](O)CN1C[C@H]2CCCC[C@H]2C[C@H]1C(=O)NC(C)(C)C ? 11.2 µM (active)

Similarly, CC(=O)c1ccc2c(c1)N(CCCN(C)C)c1ccccc1S2 ? 25.1 µM (active)

###

- assay remarks: Cell Viability - NIH 3T3 (AID 541);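 further: cells exposed to compound for 40 hours; nearly all actives have a fitted effect of over 25% in size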
- particulars: NIH 3T3 cell viability, qHTS
Records with an inconclusive call do not appear. Calls of active or inactive are those of the source. The call rests on the fitted dose curve; in most records, active means well fitted cell-killing curve with a large enough effect; inconclusive means small, poorly fitted or top-dose-only effect; inactive means flat fitted curve, though single readings scatter.
Please answer using one outcome listed in active, inactive

State the result this test recorded for [Cl][In]([Cl])[Cl] . inactive

Similarly, CCCCOC(=O)c1ccc(O)cc1 ? inactive

Similarly, NCCNCCNCCNCCN ? inactive

Similarly, NC(=O)c1ncn([C@@H]2O[C@H](CO)[C@@H](O)[C@H]2O)n1 ? active

Similarly, O=C1O[C@H]([C@@H](O)CO)C(O)=C1O ? inactive

Similarly, Cc1cc2nc3c(=O)[nH]c(=O)nc-3n(C[C@H](O)[C@H](O)[C@H](O)CO)c2cc1C ? inactive

Similarly, Cc1cc(CC(=O)O)n(C)c1C(=O)c1ccc(Cl)cc1 ? inactive

###

- assay remarks: qHTS Assay for Lipid Storage Modulators (AID 1519)
- particulars: Drosophila S3 cells, BODIPY lipid droplet/cell ratio, laser cytometry; measured here: cell count channel max response; cells loaded with oleic acid
Results filed as inconclusive are left out.
quantity measured: max response (%)
The reply should be a number in %, with the unit left off.

// query max response value for entry CN1CCOC(c2ccccc2)c2ccccc2C1 (centres undefined) 13.7

Similarly, CC1=C(/C=C/C(C)=C/C=C/C(C)=C/C(=O)O)C(C)(C)CCC1 ? -9.37

Similarly, CN(C)CC[C@@H](c1ccc(Cl)cc1)c1ccccn1 ? 35.1

Similarly, CC(C)(C)c1onc(OCP(=O)(O)O)c1CC(N)C(=O)O (centres undefined) ? -37.6

Similarly, CCCCCCCCCCCCCCCCCCOCC(O)CO (centres undefined) ? 15.6

Similarly, Oc1cccc(O)c1 ? 10.3

Similarly, NCC(=O)CCC(=O)O ? 6.63

Similarly, O=C1NS(=O)(=O)c2ccccc21 ? 18.3

Similarly, Nc1cc(=O)[nH]c(N)n1 ? -3.41

Similarly, CN(C)CCOC(C)(c1ccccc1)c1ccccn1 (centres undefined) ? -15.9

Similarly, CC1(C)OC(=O)NC1=O ? -12

Similarly, O=c1cc(CO)occ1O ? 23.1

Similarly, Cc1ccc(C(C)C)cc2c(C)ccc1-2 ? 18.3

Similarly, O=c1cc[nH]c(=S)[nH]1 ? 11.5

###

- assay remarks: qHTS for differential inhibitors of proliferation of Plasmodium falciparum line W2 (AID 1883);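 further: parasites grown with compound for 72 h before lysis and staining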
- particulars: Plasmodium falciparum W2 proliferation inhibition; series mostly up to 28.7 µM
Results filed as inconclusive are left out. Calls of active or inactive are those of the source. The call rests on the fitted dose curve; in most records, active means well fitted curve in the direction sought with a large enough effect; inconclusive means small, poorly fitted or top-dose-only effect, or another doubt; inactive means no such curve, though single readings can be large or run the other way.
Please answer using one outcome listed in active, inactive

State the result this test recorded for CCCCCCCCCCCCCCCC(=O)NCCO . active

Similarly, CC(CN1c2ccccc2Sc2ccccc21)N(C)C (centres undefined) ? active

Similarly, CCN(CC)CCCC(C)Nc1c2ccc(Cl)cc2nc2ccc(OC)cc12 (centres undefined) ? active

Similarly, Nc1cc(=O)[nH]c(N)n1 ? inactive

###

- Test system: astro
- assay remarks: Drug repurposing screens with cells derived from glioblastoma tumor samples (AID 1345199); further: nearly all actives have a fitted effect of over 40% in size
- particulars: viability, ATP luminescence, 48 h; series mostly up to 45.9 µM
Results filed as inconclusive are left out. Activity calls are given as the source filed them. Calls follow the shape of the dose curve; as a rule, active = well fitted inhibition curve with a large enough effect; inconclusive = small, poorly fitted or top-dose-only effect; inactive = flat fitted curve, though single readings scatter.
Please answer using one outcome listed in active, inactive

State the result this test recorded for OC[C@H]1O[C@@H](O[C@@H]2[C@@H](CO)O[C@](O)(CO)[C@H]2O)[C@H](O)[C@@H](O)[C@H]1O . inactive

Similarly, O=C1O[C@H](CO)[C@@H](O)[C@H](O)[C@H]1O ? inactive

Similarly, Nc1ccc(S(=O)(=O)Nc2ccc(Cl)nn2)cc1 ? inactive

Similarly, CCN(CC)C(C)CN1c2ccccc2Sc2ccccc21 (stereo unspecified) ? inactive

Similarly, CCC(=O)Nc1ccc(O)cc1 ? inactive

Similarly, CCOc1nc2cccc(C(=O)O)c2n1Cc1ccc(-c2ccccc2-c2nn[nH]n2)cc1 ? active

Similarly, CCCCC/C(C=O)=C\c1ccccc1 ? inactive

Similarly, CC(C)(C)NCC(O)COc1ccc(NC(=O)NC2CCCCC2)cc1 (stereo unspecified) ? inactive

Similarly, NS(=O)(=O)c1cc2c(cc1Cl)NC(CSCc1ccccc1)=NS2(=O)=O ? inactive

Similarly, COc1ccc(S(=O)(=O)Nc2nnc(CC(C)C)s2)cc1 ? inactive

Similarly, CCCn1cnc2c1c(=O)n(CCCCC(C)=O)c(=O)n2C ? inactive
